biological target: SARS-CoV-2 RBD-hFc (SARS-CoV-2); assay: Luminex beads
Observable: binding result

Ask: What does the data say about its binding result? Entry: mAb10967 (antibody, V domains shown) VH: EVQLVESGGGLVQPGGSLRLSCAASGFTVSSNYMSWVRQAPGKGLEWVSVIYPGGSTFYADSVKGRFTISRDNSKNTLYLQMNSLRAEDTAVYYCARDQRDFAWGQGTLVTVSS VL: DIQMTQSPSSLSASVGDRVTITCQASQDISNYLNWYQQKPGKAPKLLIYDASNLETGVPSRFSGSGSGTDFTFTISGLQPEDIATYYCQQYDNLPPTFGQGTRLEIKR
Reply: binds

Reference for the values: patent US20240043504A1
